system: SNU-C4 xenografted nude mice; test: Biodistribution study in SNU-C4 xenografted nude mice after intravenous injection; assay type: in vivo, mouse; details: stomach, 1 hr after intravenous injection
Property: % ID/g Stomach (% ID/g)

NC(CNC(=O)CN1CCN(CC(=O)[O-])CCN(CC(=O)[O-])CC1)C(=O)[O-].[68Ga+3] (centres unmarked) [^68Ga-NOTA-ala]; 0.33
NC(CNC(=O)CN1CCN(CC(=O)[O-])CCN(CC(=O)[O-])CCN(CC(=O)[O-])CC1)C(=O)O.[68Ga+3] (centres unmarked) [^68Ga-DOTA-ala]; 0.45
NC(CN1CCN(CC(=O)[O-])CCNCCN(CC(=O)[O-])CC1)C(=O)[O-].[68Ga+3] (centres unmarked) [^68Ga-DO2A-ala]; 12.82
O=C([O-])CN1CCN(CC(=O)[O-])CCN(CC(=O)[O-])CC1.[68Ga+3] [^68Ga-NOTA, reference compound]; 0.20
O=C([O-])CN1CCN(CC(=O)[O-])CCN(CC(=O)O)CCN(CC(=O)[O-])CC1.[68Ga+3] [^68Ga-DOTA, reference compound]; 0.26

(1) O=C([O-])CN1CCNCCN(CC(=O)[O-])CCNCC1.[68Ga+3] [^68Ga-DO2A, reference compound]
(2) N[C@@H](CN1CCN(CC(=O)[O-])CCN(CC(=O)[O-])CCN(CC(=O)[O-])CC1)C(=O)O.[68Ga+3] (stereo in doubt) [^68Ga-DO3A-ala]
Returns: the argument ( 1 or 2 ) having the larger % ID/g Stomach. Lab log: write the label of the selected item as the result. 2

====

tested on: SNU-C4 xenografted nude mice; assay: Biodistribution study in SNU-C4 xenografted nude mice after intravenous injection; type: in vivo, mouse; conditions: spleen, 1 hr after intravenous injection
Property: % ID/g Spleen (% ID/g)

O=C([O-])CN1CCNCCN(CC(=O)[O-])CCNCC1.[68Ga+3] [^68Ga-DO2A, reference compound]; 0.47
NC(CNC(=O)CN1CCN(CC(=O)[O-])CCN(CC(=O)[O-])CC1)C(=O)[O-].[68Ga+3] (centres unmarked) [^68Ga-NOTA-ala]; 0.55
NC(CNC(=O)CN1CCN(CC(=O)[O-])CCN(CC(=O)[O-])CCN(CC(=O)[O-])CC1)C(=O)O.[68Ga+3] (centres unmarked) [^68Ga-DOTA-ala]; 0.47

(A) NC(CN1CCN(CC(=O)[O-])CCNCCN(CC(=O)[O-])CC1)C(=O)[O-].[68Ga+3] (centres unmarked) [^68Ga-DO2A-ala]
(B) O=C([O-])CN1CCN(CC(=O)[O-])CCN(CC(=O)[O-])CC1.[68Ga+3] [^68Ga-NOTA, reference compound]
(C) O=C([O-])CN1CCNCCN(CC(=O)[O-])CCN(CC(=O)[O-])CC1.[68Ga+3] [^68Ga-DO3A, reference compound]
(D) N[C@@H](CN1CCN(CC(=O)[O-])CCN(CC(=O)[O-])CCN(CC(=O)[O-])CC1)C(=O)O.[68Ga+3] (stereo in doubt) [^68Ga-DO3A-ala]
Arrange the 4 molecules from largest to smallest % ID/g Spleen. The response must list the labels following the requested ordering. D, A, C, B

====

system: SNU-C4 xenografted nude mice; assay: Biodistribution study in SNU-C4 xenografted nude mice after intravenous injection; assay type: in vivo, mouse; conditions: spleen, 10 min after intravenous injection
Property: % ID/g Spleen (% ID/g)

(P) O=C([O-])CN1CCNCCN(CC(=O)[O-])CCN(CC(=O)[O-])CC1.[68Ga+3] [^68Ga-DO3A, reference compound]
(Q) N[C@@H](CN1CCN(CC(=O)[O-])CCN(CC(=O)[O-])CCN(CC(=O)[O-])CC1)C(=O)O.[68Ga+3] (stereo in doubt) [^68Ga-DO3A-ala]
Among P and Q , whose measured % ID/g Spleen is the smaller figure? Answer by stating the label of the chosen item. P
(P: 1.63 % ID/g, Q: 2.59 % ID/g)

====

Tested on: SNU-C4 xenografted nude mice
Assay: Biodistribution study in SNU-C4 xenografted nude mice after intravenous injection
Format: in vivo, mouse
Conditions: stomach, 30 min after intravenous injection
Protocol: Human colon cancer cell line SNU-C4 was cultured in RPMI1640 media containing 10% fetal bovine serum and harvested using trypsin. The cells were washed using 10 mL PBS and centrifugation at 3,000 rpm. […] The injected mice were sacrificed at 10 min, 30 min, 1 hr, and 2 hr, cancer, blood, muscle, heart, liver, spleen, stomach, intestine, and bone were obtained, weighed, and their radioactivities were counted. The results were expressed as percentages of injected dose per gram tissue (% ID/g).
Property: % ID/g Stomach (% ID/g)

(1) NC(CNC(=O)CN1CCN(CC(=O)[O-])CCN(CC(=O)[O-])CC1)C(=O)[O-].[68Ga+3] (centres unmarked) [^68Ga-NOTA-ala]
(2) O=C([O-])CN1CCNCCN(CC(=O)[O-])CCNCC1.[68Ga+3] [^68Ga-DO2A, reference compound]
// select label with min value of measured % ID/g Stomach from [ 1 , 2 ] Give the chosen item's label as your response. 1
(1: 0.79 % ID/g, 2: 1.22 % ID/g)

(I) NC(CNC(=O)CN1CCN(CC(=O)[O-])CCN(CC(=O)[O-])CCN(CC(=O)[O-])CC1)C(=O)O.[68Ga+3] (centres unmarked) [^68Ga-DOTA-ala]
(II) NC(CN1CCN(CC(=O)[O-])CCNCCN(CC(=O)[O-])CC1)C(=O)[O-].[68Ga+3] (centres unmarked) [^68Ga-DO2A-ala]
Returns: the label, I or II , whose recorded % ID/g Stomach is the lower number. Write down the label of the entry you select. I

(A) O=C([O-])CN1CCNCCN(CC(=O)[O-])CCN(CC(=O)[O-])CC1.[68Ga+3] [^68Ga-DO3A, reference compound]
(B) N[C@@H](CN1CCN(CC(=O)[O-])CCN(CC(=O)[O-])CCN(CC(=O)[O-])CC1)C(=O)O.[68Ga+3] (stereo in doubt) [^68Ga-DO3A-ala]
// compare measured % ID/g Stomach, left A , right B , return larger State your choice using its label. B
(B: 1.53 % ID/g, A: 1.00 % ID/g)

====

System: SNU-C4 xenografted nude mice
Assay: Biodistribution study in SNU-C4 xenografted nude mice after intravenous injection
Format: in vivo, mouse
Details: kidney, 10 min after intravenous injection
Procedure: Human colon cancer cell line SNU-C4 was cultured in RPMI1640 media containing 10% fetal bovine serum and harvested using trypsin. The cells were washed using 10 mL PBS and centrifugation at 3,000 rpm. […] The injected mice were sacrificed at 10 min, 30 min, 1 hr, and 2 hr, cancer, blood, muscle, heart, liver, spleen, stomach, intestine, and bone were obtained, weighed, and their radioactivities were counted. The results were expressed as percentages of injected dose per gram tissue (% ID/g).
Property: % ID/g Kidney (% ID/g)

Here are 5 compounds together with their reported answers.
O=C([O-])CN1CCN(CC(=O)[O-])CCN(CC(=O)O)CCN(CC(=O)[O-])CC1.[68Ga+3] [^68Ga-DOTA, reference compound]; 16.19
NC(CNC(=O)CN1CCN(CC(=O)[O-])CCN(CC(=O)[O-])CCN(CC(=O)[O-])CC1)C(=O)O.[68Ga+3] (centres unmarked) [^68Ga-DOTA-ala]; 50.94
NC(CN1CCN(CC(=O)[O-])CCNCCN(CC(=O)[O-])CC1)C(=O)[O-].[68Ga+3] (centres unmarked) [^68Ga-DO2A-ala]; 13.33
NC(CNC(=O)CN1CCN(CC(=O)[O-])CCN(CC(=O)[O-])CC1)C(=O)[O-].[68Ga+3] (centres unmarked) [^68Ga-NOTA-ala]; 20.96
O=C([O-])CN1CCNCCN(CC(=O)[O-])CCN(CC(=O)[O-])CC1.[68Ga+3] [^68Ga-DO3A, reference compound]; 11.96

(a) O=C([O-])CN1CCN(CC(=O)[O-])CCN(CC(=O)[O-])CC1.[68Ga+3] [^68Ga-NOTA, reference compound]
(b) N[C@@H](CN1CCN(CC(=O)[O-])CCN(CC(=O)[O-])CCN(CC(=O)[O-])CC1)C(=O)O.[68Ga+3] (stereo in doubt) [^68Ga-DO3A-ala]
(c) O=C([O-])CN1CCNCCN(CC(=O)[O-])CCNCC1.[68Ga+3] [^68Ga-DO2A, reference compound]
Sort (3 compounds) by % ID/g Kidney: min first. Your answer should be the labels, listed in the requested order. a, c, b

====

test system: SNU-C4 xenografted nude mice; experiment: Biodistribution study in SNU-C4 xenografted nude mice after intravenous injection; type: in vivo, mouse; conditions: bone, 10 min after intravenous injection
Property: % ID/g Bone (% ID/g)

NC(CNC(=O)CN1CCN(CC(=O)[O-])CCN(CC(=O)[O-])CCN(CC(=O)[O-])CC1)C(=O)O.[68Ga+3] (centres unmarked) [^68Ga-DOTA-ala]; 2.52

(P) NC(CN1CCN(CC(=O)[O-])CCNCCN(CC(=O)[O-])CC1)C(=O)[O-].[68Ga+3] (centres unmarked) [^68Ga-DO2A-ala]
(Q) N[C@@H](CN1CCN(CC(=O)[O-])CCN(CC(=O)[O-])CCN(CC(=O)[O-])CC1)C(=O)O.[68Ga+3] (stereo in doubt) [^68Ga-DO3A-ala]
(R) O=C([O-])CN1CCNCCN(CC(=O)[O-])CCN(CC(=O)[O-])CC1.[68Ga+3] [^68Ga-DO3A, reference compound]
Would you mind ranking these compounds by ascending % ID/g Bone? Give the labels in the order specified. R, P, Q
